System: human FGFR1c + KLB receptor complex on HEK293 iLite FGF21 reporter cells (human, UniProt P11362 22-822; Q86Z14 1-1044)
Sequence (P11362 22-822, chain 1 of 2): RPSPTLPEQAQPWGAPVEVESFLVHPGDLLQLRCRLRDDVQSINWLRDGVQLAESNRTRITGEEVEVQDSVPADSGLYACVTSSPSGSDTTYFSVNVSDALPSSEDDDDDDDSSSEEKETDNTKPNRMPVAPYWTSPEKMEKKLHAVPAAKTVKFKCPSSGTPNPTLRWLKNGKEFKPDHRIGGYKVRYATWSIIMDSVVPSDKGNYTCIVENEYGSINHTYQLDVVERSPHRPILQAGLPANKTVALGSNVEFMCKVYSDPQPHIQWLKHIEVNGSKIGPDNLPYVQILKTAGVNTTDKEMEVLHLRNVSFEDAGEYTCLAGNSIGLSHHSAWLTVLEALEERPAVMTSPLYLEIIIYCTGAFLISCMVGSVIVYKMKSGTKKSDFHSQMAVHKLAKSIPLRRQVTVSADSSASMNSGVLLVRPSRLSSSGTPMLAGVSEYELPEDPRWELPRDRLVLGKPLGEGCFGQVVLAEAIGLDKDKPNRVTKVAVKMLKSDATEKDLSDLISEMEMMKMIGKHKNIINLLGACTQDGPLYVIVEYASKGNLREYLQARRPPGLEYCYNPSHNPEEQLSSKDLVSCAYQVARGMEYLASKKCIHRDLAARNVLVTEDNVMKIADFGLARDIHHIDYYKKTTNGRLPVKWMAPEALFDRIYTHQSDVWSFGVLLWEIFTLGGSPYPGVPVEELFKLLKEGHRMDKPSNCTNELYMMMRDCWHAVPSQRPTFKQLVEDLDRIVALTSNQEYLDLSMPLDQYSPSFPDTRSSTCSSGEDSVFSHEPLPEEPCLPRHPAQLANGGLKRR
Sequence (Q86Z14 whole entry, chain 2 of 2): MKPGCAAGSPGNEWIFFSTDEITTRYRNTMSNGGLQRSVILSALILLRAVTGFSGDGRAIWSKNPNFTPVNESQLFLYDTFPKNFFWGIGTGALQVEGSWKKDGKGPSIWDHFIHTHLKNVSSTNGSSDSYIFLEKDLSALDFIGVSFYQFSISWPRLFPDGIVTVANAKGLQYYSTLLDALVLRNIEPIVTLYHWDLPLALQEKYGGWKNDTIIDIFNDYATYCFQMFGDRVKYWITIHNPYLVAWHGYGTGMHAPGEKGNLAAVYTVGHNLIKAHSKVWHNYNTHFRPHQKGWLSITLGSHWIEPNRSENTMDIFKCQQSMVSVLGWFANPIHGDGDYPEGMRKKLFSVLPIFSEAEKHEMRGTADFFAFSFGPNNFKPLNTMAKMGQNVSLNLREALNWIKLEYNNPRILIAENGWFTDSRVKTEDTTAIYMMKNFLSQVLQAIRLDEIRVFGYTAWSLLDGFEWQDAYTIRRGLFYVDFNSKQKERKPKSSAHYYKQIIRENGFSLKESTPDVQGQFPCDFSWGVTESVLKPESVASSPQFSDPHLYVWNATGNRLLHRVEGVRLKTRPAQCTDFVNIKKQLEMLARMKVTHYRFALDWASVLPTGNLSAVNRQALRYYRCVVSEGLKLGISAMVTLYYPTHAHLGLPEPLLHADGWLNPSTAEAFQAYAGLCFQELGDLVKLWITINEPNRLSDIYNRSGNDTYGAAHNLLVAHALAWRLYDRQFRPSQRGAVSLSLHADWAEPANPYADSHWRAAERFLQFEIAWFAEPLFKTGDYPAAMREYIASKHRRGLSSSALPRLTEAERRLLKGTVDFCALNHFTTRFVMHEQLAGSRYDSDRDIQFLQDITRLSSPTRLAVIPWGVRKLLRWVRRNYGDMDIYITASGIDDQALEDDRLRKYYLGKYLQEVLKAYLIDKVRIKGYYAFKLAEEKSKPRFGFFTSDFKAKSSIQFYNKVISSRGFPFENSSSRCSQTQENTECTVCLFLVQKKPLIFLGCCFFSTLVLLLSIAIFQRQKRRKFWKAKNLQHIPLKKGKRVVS
Measurement protocol: cell-based or functional assay
I'd be grateful if you could share measured EC50 for these entries.
Give the number; nM is assumed, so skip it.

[in] Report EC50 for Ab0308 (antibody, IgG4, V domains shown, IgG4 PE) VH: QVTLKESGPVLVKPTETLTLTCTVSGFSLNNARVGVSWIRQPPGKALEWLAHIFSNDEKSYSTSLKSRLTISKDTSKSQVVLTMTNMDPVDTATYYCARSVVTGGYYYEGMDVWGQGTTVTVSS VL: SYVLTQPPSVSVAPGQTARITCGGSNIGSESVHWYQQKPGQAPVLVVYYDSDRPSGIPERFSGSNSGNTATLTISRVEAGDEADYYCQVWDGESDHVVFGGGTKLTVLG please.
[out] 0.06

[in] Report EC50 for Ab0354 (antibody, IgG4, V domains shown, IgG4 PE) VH: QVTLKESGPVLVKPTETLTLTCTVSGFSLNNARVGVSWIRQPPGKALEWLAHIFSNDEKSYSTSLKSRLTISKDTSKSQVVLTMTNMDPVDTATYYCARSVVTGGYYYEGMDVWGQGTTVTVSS VL: SYVLTQPPSVSVAPGQTARITCGGSNIGSESVHWYQQKPGQAPVLVVYEESDRPSGIPERFSGSNSGNTATLTISRVEAGDEADYYCQVWHGSSDHVVFGGGTKLTVLG please.
[out] 0.07

[in] Report EC50 for Ab0415 (antibody, IgG4, V domains shown) VH: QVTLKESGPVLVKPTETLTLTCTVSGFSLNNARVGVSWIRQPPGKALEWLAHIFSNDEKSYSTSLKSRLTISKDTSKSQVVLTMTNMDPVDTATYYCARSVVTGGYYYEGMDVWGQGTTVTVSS VL: SYVLTQPPSVSVAPGQTARITCGGSNIGSESVHWYQQKPGQAPVLVVYYESDRPSGIPERFSGSNSGNTATLTISRVEAGDEADYYCQVWAGESDHVVFGGGTKLTVLG please.
[out] 0.3

[in] Report EC50 for Ab0202 (antibody, IgG4, V domains shown, IgG4 PE) VH: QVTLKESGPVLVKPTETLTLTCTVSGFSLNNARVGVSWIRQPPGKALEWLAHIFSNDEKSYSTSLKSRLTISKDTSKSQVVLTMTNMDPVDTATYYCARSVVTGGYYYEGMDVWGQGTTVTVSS VL: SYVLTQPPSVSVAPGQTARITCGGNNIGSESVHWYQQKPGQAPVLVVYYDSDRPSGIPERFSGSNSGNTATLTISRVEAGDEADYYCQVWDGNSDHVVFGGGTKLTVLG please.
[out] 0.07

[in] Report EC50 for Ab0343 (antibody, IgG4, V domains shown) VH: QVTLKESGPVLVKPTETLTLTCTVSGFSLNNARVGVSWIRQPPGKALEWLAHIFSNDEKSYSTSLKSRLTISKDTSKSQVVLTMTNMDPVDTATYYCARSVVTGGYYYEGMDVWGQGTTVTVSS VL: SYVLTQPPSVSVAPGQTARITCGGSNIGSESVHWYQQKPGQAPVLVVYAASDRPSGIPERFSGSNSGNTATLTISRVEAGDEADYYCQVWAGSSDHVVFGGGTKLTVLG please.
[out] 1.37

[in] Report EC50 for Ab0347 (antibody, IgG4, V domains shown) VH: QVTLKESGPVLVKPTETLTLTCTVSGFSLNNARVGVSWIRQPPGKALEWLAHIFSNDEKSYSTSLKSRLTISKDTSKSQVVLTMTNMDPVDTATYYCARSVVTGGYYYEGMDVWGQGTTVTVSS VL: SYVLTQPPSVSVAPGQTARITCGGSNIGSESVHWYQQKPGQAPVLVVYASSDRPSGIPERFSGSNSGNTATLTISRVEAGDEADYYCQVWAGSSDHVVFGGGTKLTVLG please.
[out] 0.24

[in] Report EC50 for Ab0365 (antibody, IgG4, V domains shown) VH: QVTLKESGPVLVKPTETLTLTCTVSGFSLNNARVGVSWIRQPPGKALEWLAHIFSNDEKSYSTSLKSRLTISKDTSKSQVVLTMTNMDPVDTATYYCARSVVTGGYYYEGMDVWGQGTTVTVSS VL: SYVLTQPPSVSVAPGQTARITCGGANIGSESVHWYQQKPGQAPVLVVYTESDRPSGIPERFSGSNSGNTATLTISRVEAGDEADYYCQVWAGSSDHVVFGGGTKLTVLG please.
[out] 0.85

[in] Report EC50 for Ab0318 (antibody, IgG4, V domains shown) VH: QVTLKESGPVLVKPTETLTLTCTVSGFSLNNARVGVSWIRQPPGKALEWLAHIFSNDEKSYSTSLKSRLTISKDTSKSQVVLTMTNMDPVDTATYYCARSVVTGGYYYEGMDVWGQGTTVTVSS VL: SYVLTQPPSVSVAPGQTARITCGGSNIGSESVHWYQQKPGQAPVLVVYDESDRPSGIPERFSGSNSGNTATLTISRVEAGDEADYYCQVWTGESDHVVFGGGTKLTVLG please.
[out] 0.3

Hello, the source for this data is patent US20220010021A1, in case you need it.
